- target of assay: hKv3.1b (Homo sapiens)
- Construct: expressed in transfected cells
- Sequence (P48547 1-585 isoform P48547-2): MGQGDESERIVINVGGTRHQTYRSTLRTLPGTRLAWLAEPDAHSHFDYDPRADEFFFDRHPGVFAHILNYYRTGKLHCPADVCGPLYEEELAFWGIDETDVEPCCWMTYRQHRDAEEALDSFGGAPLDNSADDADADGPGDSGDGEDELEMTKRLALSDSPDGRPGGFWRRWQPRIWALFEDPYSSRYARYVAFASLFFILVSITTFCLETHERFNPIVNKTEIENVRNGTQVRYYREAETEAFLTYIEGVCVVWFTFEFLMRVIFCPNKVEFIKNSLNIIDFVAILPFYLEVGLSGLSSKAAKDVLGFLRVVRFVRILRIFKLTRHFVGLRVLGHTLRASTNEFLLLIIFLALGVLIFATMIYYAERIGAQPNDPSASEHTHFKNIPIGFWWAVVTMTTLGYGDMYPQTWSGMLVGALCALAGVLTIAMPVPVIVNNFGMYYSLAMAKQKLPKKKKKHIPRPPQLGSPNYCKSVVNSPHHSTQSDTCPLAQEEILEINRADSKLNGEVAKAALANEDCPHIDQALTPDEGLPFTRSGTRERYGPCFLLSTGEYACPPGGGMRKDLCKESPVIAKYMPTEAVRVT
- assay procedure: Automated patch clamp (QPatch-16x) on HEK-293 cells stably expressing hKv3.1b
- Format: cell-based
- assay context: maximum absolute hyperpolarizing shift of activation threshold at tested concentrations 0.37-30 μM
Decide using Threshold Shift: a value greater than or equal to 20 mV is YES, a smaller one is NO.

compound="Cc1ccc(S(=O)(=O)n2ccc(C(=O)NCc3cnc(C)cn3)c2)cc1 [Compound 25]" target_of_assay="hKv3.1b (Homo sapiens)" category=YES
compound="Cc1ccc(S(=O)(=O)n2ccc(C(=O)NCc3cccnc3)c2)cc1 [Compound 14]" target_of_assay="hKv3.1b (Homo sapiens)" category=YES
compound="Cc1cnc(CNC(=O)c2ccn(S(=O)(=O)c3ccccc3F)c2)cn1 [Compound 4]" target_of_assay="hKv3.1b (Homo sapiens)" category=NO
compound="Cc1ccccc1S(=O)(=O)n1ccc(C(=O)NCc2cnn(C)c2)c1 [Compound 76]" target_of_assay="hKv3.1b (Homo sapiens)" category=NO
compound="Cc1ccc(S(=O)(=O)n2ccc(C(=O)NCc3cnc(C)cn3)c2)c(F)c1 [Compound 95]" target_of_assay="hKv3.1b (Homo sapiens)" category=YES
compound="Cc1cccc(S(=O)(=O)n2ccc(C(=O)NCc3ccn(C)n3)c2)c1 [Compound 60]" target_of_assay="hKv3.1b (Homo sapiens)" category=NO
compound="Cc1cnc(CNC(=O)c2ccn(S(=O)(=O)c3ccccc3C)c2)cn1 [Compound 28]" target_of_assay="hKv3.1b (Homo sapiens)" category=YES
compound="Cc1cc(CNC(=O)c2ccn(S(=O)(=O)c3ccccc3C)c2)on1 [Compound 78]" target_of_assay="hKv3.1b (Homo sapiens)" category=NO
compound="Cc1ccc(S(=O)(=O)n2ccc(C(=O)NCc3cnco3)c2)cc1 [Compound 50]" target_of_assay="hKv3.1b (Homo sapiens)" category=NO
compound="Cc1ccc(S(=O)(=O)n2ccc(C(=O)NCc3cccc(C)n3)c2)cc1 [Compound 15]" target_of_assay="hKv3.1b (Homo sapiens)" category=NO
compound="Cc1ccc(CNC(=O)c2ccn(S(=O)(=O)c3ccccc3C)c2)nc1 [Compound 77]" target_of_assay="hKv3.1b (Homo sapiens)" category=NO
compound="Cc1ccc(S(=O)(=O)n2ccc(C(=O)NCc3ncc(C)cn3)c2)cc1 [Compound 1]" target_of_assay="hKv3.1b (Homo sapiens)" category=YES
compound="Cc1ccc(S(=O)(=O)n2cc(C)c(C(=O)NCc3cnc(C)cn3)c2)cc1 [Compound 8]" target_of_assay="hKv3.1b (Homo sapiens)" category=NO
compound="COc1cccnc1CNC(=O)c1ccn(S(=O)(=O)c2ccc(C)cc2)c1 [Compound 10]" target_of_assay="hKv3.1b (Homo sapiens)" category=NO
compound="Cc1cccc(S(=O)(=O)n2ccc(C(=O)NCc3nc(C)no3)c2)c1 [Compound 61]" target_of_assay="hKv3.1b (Homo sapiens)" category=NO
compound="Cc1ccc(S(=O)(=O)n2ccc(C(=O)NCc3ccc(C)nn3)c2)cc1 [Compound 3]" target_of_assay="hKv3.1b (Homo sapiens)" category=YES
compound="COc1ccc(S(=O)(=O)n2ccc(C(=O)NCc3cnc(C)cn3)c2)c(F)c1 [Compound 96]" target_of_assay="hKv3.1b (Homo sapiens)" category=YES
